- Test system: OVCAR-4 ovarian
- Test Summary: NCI-60 one-dose screen, 48 h (100 = growth as untreated, 0 = no growth, -100 = all killed)
- Condition Set: 10 µM unless noted
About 83,000 compounds went through this panel and 20% of them were active in at least one assay; those are over-represented in the sample as a whole. Calls of active or inactive are those of the source. Rule for the calls: active = growth percent below 10; inactive = the rest.
Catalogue of growth values

Known growth results, listed for orientation:
O=S(=O)(CCN1CCOCC1)Nc1cc(-c2ccc3ncnc(Nc4ccc(F)c(Cl)c4)c3c2)cnc1Cl ... 11.5% (inactive)
c1cncc(-c2nc3ccccc3[nH]2)c1 ... 104% (inactive)
O=c1[nH]ccc2nc(N3CCC(O)CC3)nc(Nc3cccc(C(F)(F)F)c3)c12 ... 91.4% (inactive)
O=C1CN(CCN2CC(=O)NC(=O)C2)CC(=O)N1 ... 96.1% (inactive)
Nc1ccc(S(=O)(=O)Nc2ccnn2-c2ccccc2)cc1 ... 109% (inactive)

**Q:** Return reported growth; argument: `CC(/C=C/C=C(\C)[C@H](O)[C@H](C)C(=O)O[C@H]1C[C@H](C)C=C2C=C[C@@]3(C)O[C@@H](O)CC(=O)[C@]3(C)[C@H]21)=C\C=C\C(=O)O`
**A:** 23% (inactive)

**Q:** Entry under review: `O=C(Nc1ccc(-n2ccc3c(NC(=O)c4ccccc4)nccc32)cc1)c1ccc(Cl)c(C(F)(F)F)c1` . Reported growth?
**A:** 88.5% (inactive)

**Q:** Using the record for `CCOC(=O)c1noc2c1CCc1cn(Cc3cc(OC)cc(OC)c3)cc1-2` , report its growth.
**A:** 113% (inactive)

**Q:** Form field: reported growth of `c1ccc(-c2nc3sc(C(c4ccccc4)c4ccccc4)nn3c2-c2ccccc2)cc1`
**A:** 103% (inactive)

**Q:** Please look up its growth: `C=CC(=O)Nc1cccc(Nc2nc(Nc3ccc(OCCOC(F)F)cc3)ncc2F)c1`
**A:** 40.6% (inactive)

**Q:** GET /values?readout=growth&item= `C=C1C(=O)O[C@H]2[C@H]1CC/C(CNC(=O)/C1=C/CC[C@@]3(C)O[C@H]3[C@H]3OC(=O)C(=C)[C@@H]3CC1)=C\CC[C@@]1(C)O[C@@H]21`
**A:** 86.9% (inactive)

**Q:** Look up growth: `CC(C)(C)OC(=O)N1CCN(CCn2cc(C(F)(F)F)c3c(Cl)ncnc32)CC1`
**A:** 103% (inactive)

**Q:** Using the record for `O=C(Nc1ccc(-n2cc(-c3ccncc3)c(-c3ccc(O)c(Cl)c3)n2)cc1)Nc1ccc(Cl)c(C(F)(F)F)c1` , report its growth.
**A:** 42.2% (inactive)

**Q:** Dear colleague, I am looking for the recorded growth of the following compound: `COc1ccc2c(c1)C(=O)/C(=C/c1cccc(OCC(=O)c3ccccc3)c1)O2`
**A:** -55.1% (active)

**Q:** # input compound: `CN(C)c1ccc(/C=c2\s/c(=C\C(=O)C(C)(C)C)[nH]c2=O)cc1` ; wanted: its growth
**A:** 85.3% (inactive)

**Q:** So what does the record say about growth for `Fc1ccc(/C=N/n2c(-c3cc(Cl)cc(Cl)c3Cl)nn(CNc3ccc(Cl)nn3)c2=S)cc1` ?
**A:** 91.8% (inactive)

**Q:** Consider the compound shown here: `O=C(Cn1c2ccccc2c2ccncc21)N/N=C\c1ccc2ccccc2c1` What is its recorded growth?
**A:** -11% (active)

**Q:** Data request, read-out growth, for CCC1S/C(=N\N=C(/C)c2cccs2)N(c2ccccc2)C1=O (stereo not drawn)
**A:** 99.7% (inactive)

**Q:** Fill blank: measured growth of the compound `COc1ccc(-c2nnc(SCC(=O)Nc3ccc(C(=O)/C=C/c4ccc(Cl)cc4)cc3)o2)cc1OC` is ____.
**A:** -17.1% (active)

**Q:** I'd like to know its growth. The compound in question is `COc1ccc(NC(=O)COCCOCCNC[C@@H]2C(=O)O[C@H]3[C@H]2CC/C(COC(=O)OC/C2=C/CC[C@@]4(C)O[C@H]4[C@H]4OC(=O)[C@@H](CN(C)C)[C@@H]4CC2)=C\CC[C@@]2(C)O[C@@H]32)c(O)c1C(N)=O`
**A:** 31.3% (inactive)

**Q:** Entry `CCn1cc(C(=O)O)c(=O)c2cc(F)c(N3CCN(CC(=O)Nc4ccc(C(C)=O)cc4)CC3)cc21` : reported growth = ?
**A:** 113% (inactive)

**Q:** Form field: reported growth of CC(=O)N1N=C(CCC(=O)c2nc3ccc([N+](=O)[O-])cc3[nH]2)OC1c1ccc(O)cc1 (stereo not drawn)
**A:** 109% (inactive)

Data credit: PubChem BioAssay (NCI)
